Listed here: items and their measured Barnyardgrass plant response rating.
# Test system: barnyardgrass
# test: Test C postemergence
# Type: in vivo, Echinochloa crus-galli
# stated conditions: 31 g ai/ha, postemergence; visual rating, scale 0 to 100 (0 no effect, 100 complete control), 13 to 15 days
measure: Barnyardgrass plant response rating

- Cc1cnc(Oc2cccc(C#N)c2-n2cc(C(F)(F)F)cn2)nc1: 5
- Clc1cnc(Oc2cccc(Cl)c2-n2cc(Cl)cn2)nc1: 10
- FCc1cccc(Oc2ncc(F)cn2)c1-n1cc(I)cn1: 5
- FCc1cccc(Oc2ncc(Cl)cn2)c1-n1cc(I)cn1: 5

###

# Tested on: soybean
# test: Test C preemergence
# Format: in vivo, Glycine max
# stated conditions: 16 g ai/ha, preemergence; scale 0 to 100 (0 no effect, 100 complete control)
# Source text: […]
measure: Soybean plant response rating

• Fc1cnc(Oc2cccc(C(F)F)c2-n2cc(C(F)(F)F)cn2)nc1 = 0
• N#Cc1cn(-c2c(C#N)cccc2Oc2ncc(Cl)cn2)nn1 = 5
• Cc1cnc(Oc2cccc(C#N)c2-n2cc(C#N)cn2)nc1 = 25
• N#Cc1cnn(-c2c(Oc3ncc(F)cn3)cccc2C(F)F)c1 = 40
• NC(=S)c1cccc(Oc2ncc(Cl)cn2)c1-n1cc(Cl)cn1 = 5
